Sourced from patent US20260262643A1

# Tested on: ryegrass, Italian
# Procedure summary: Test A postemergence
# Type: in vivo, Lolium multiflorum
# Condition summary: 125 g ai/ha, postemergence, 10 days, visual injury, 0 to 100 scale (0 no effect, 100 complete control)
Measurement name: Plant response rating, Ryegrass, Italian

molecule="CC1CN(C(=O)c2cc(F)cc(-n3cncn3)c2)c2cccc(Cl)c2O1 (stereo not shown)" measured_target="ryegrass, Italian" data_value=30
molecule=Cc1cccc2c1O[C@@H](C)CN2C(=O)c1cc(-n2cncn2)ccc1F measured_target="ryegrass, Italian" data_value=50
molecule=Cc1cccc2c1O[C@@H](C)CN2C(=O)c1cccc(-n2ncnc2C(C)C)c1 measured_target="ryegrass, Italian" data_value=0
molecule="Cc1cc(F)cc2c1OC(C)CN2C(=O)c1cccc(-n2cncn2)c1 (stereo not shown)" measured_target="ryegrass, Italian" data_value=50
molecule="O=C(c1cccc(-n2cncn2)c1)N1CC(C(F)(F)F)Oc2c(Cl)cccc21 (stereo not shown)" measured_target="ryegrass, Italian" data_value=0
molecule=Cc1ccc(-n2cnc(Br)n2)cc1C(=O)N1C[C@H](C)Oc2c(Cl)cccc21 measured_target="ryegrass, Italian" data_value=40
molecule=Cc1cccc2c1O[C@@H](C)CN2C(=O)c1cccc(-n2cnc(C3CC3)n2)c1 measured_target="ryegrass, Italian" data_value=30

====

# Test system: blackgrass
# Procedure summary: Test C preemergence
# Format: in vivo, Alopecurus myosuroides
# Condition summary: 500 g ai/ha, preemergence; 0 to 100 scale (0 no effect, 100 complete control)
Measurement name: Blackgrass plant response rating

compound=CC(C)Oc1ncn(-c2cccc(C(=O)N3C[C@H](C)Oc4c(Cl)cccc43)c2)n1 data_value=80
compound="CCc1ncn(-c2cc(C(=O)N3CC(C(F)(F)F)Oc4c(C)cccc43)ccn2)n1 (stereo not shown)" data_value=90
compound=COC[C@H]1CN(C(=O)c2cc(-n3cnc(C(C)C)n3)ccc2C)c2cccc(Cl)c2O1 data_value=60
compound="Cc1cccc2c1OC(C(F)(F)F)CN2C(=O)c1ccnc(-n2cnc(C(C)C)n2)c1 (single isomer, unassigned) [Compound 320]" data_value=60
compound=CC(C)c1ncn(-c2ccc(OS(C)(=O)=O)c(C(=O)N3C[C@H](C)Oc4c(Cl)cccc43)c2)n1 data_value=80
compound=CCOC[C@H]1CN(C(=O)c2cc(-n3cnc(C(C)C)n3)cc3c2OCO3)c2cccc(Cl)c2O1 data_value=50
compound=COc1ncn(-c2cccc(C(=O)N3C[C@H](C)Oc4c(C)cccc43)c2)n1 data_value=80

====

# System: horseweed
# Procedure summary: Test C postemergence
# Assay type: in vivo, Erigeron canadensis
# Condition summary: 500 g ai/ha, postemergence, 10 days, 0 to 100 scale (0 no effect, 100 complete control)
Threshold check on Plant response rating, Horseweed: strictly below 70 is Met; on or above 70 is Not met.

compound="Cc1cccc2c1O[C@@H](C)CN2C(=O)c1cccc(-n2cnc(N(C)S(C)(=O)=O)n2)c1 [Compound 299]" class_label=Met
compound="CC(C)c1ncn(-c2cc(C(=O)N3C[C@H](C)Oc4c(Cl)cccc43)cnn2)n1 [Compound 305]" class_label="Not met"
compound="CC(C)c1ncn(-c2cc(C(=O)N3CC(C(F)(F)F)Oc4c(Cl)cccc43)ccn2)n1 (single isomer, unassigned) [Compound 330]" class_label=Met
compound="COC(C)(C)c1ncn(-c2ccc(C)c(C(=O)N3C[C@H](C)Oc4c(Cl)cccc43)c2)n1 [Compound 343]" class_label="Not met"
compound="Cc1nnc(-c2cccc(C(=O)N3C[C@H](C)Oc4c(Cl)cccc43)c2)o1 [Compound 355]" class_label=Met
compound="COC(C)c1ncn(-c2ccc(C)c(C(=O)N3CC(C)Oc4c(Cl)cccc43)c2)n1 (mixture of isomers) [Compound 359]" class_label="Not met"

====

# Tested on: oat, wild
# Procedure summary: Test C postemergence
# Format: in vivo, Avena fatua
# Condition summary: 500 g ai/ha, postemergence, 10 days, 0 to 100 scale (0 no effect, 100 complete control)
# Description: […]
We use 60 as the dividing line for Plant response rating, Oat, Wild: on or above the line is condition met, below is condition not met.

compound=CCOC[C@H]1CN(C(=O)c2cc(-n3cnc(C(C)(C)C)n3)cc3c2OCCO3)c2cccc(Cl)c2O1 class_label="condition not met"
compound=CNc1ncn(-c2cccc(C(=O)N3C[C@H](C)Oc4c(C)cccc43)c2)n1 class_label="condition not met"
compound="CC(C)c1ncn(-c2cc(C(=O)N3CC(C(F)(F)F)Oc4c(Cl)cccc43)ccn2)n1 (racemic)" class_label="condition met"
compound="CCc1ncn(-c2cc(C(=O)N3CC(C(F)(F)F)Oc4c(C)cccc43)ccn2)n1 (stereo not drawn)" class_label="condition met"
compound=COc1ccc(-n2cnc(C3CCC3)n2)cc1C(=O)N1C[C@H](C)Oc2c(Cl)cccc21 class_label="condition not met"
compound=CCOC[C@H]1CN(C(=O)c2cc(-n3cnc(C(C)(C)C)n3)cc3c2OCO3)c2cccc(Cl)c2O1 class_label="condition not met"
compound="CCOCC1CN(C(=O)c2cc(-n3cnc(C(C)(C)C)n3)ccc2OC)c2cccc(Cl)c2O1 (stereo not drawn)" class_label="condition not met"
compound="CCOCC1CN(C(=O)c2cc(-n3cnc(CC)n3)ccc2OC)c2cccc(Cl)c2O1 (stereo not drawn)" class_label="condition not met"
compound=COC[C@H]1CN(C(=O)c2cc(-n3cnc(C4CCC4)n3)cc3c2OCCO3)c2cccc(Cl)c2O1 class_label="condition not met"
compound="Cc1ccc(-n2cnc(CS(C)(=N)=O)n2)cc1C(=O)N1C[C@H](C)Oc2c(Cl)cccc21 (stereo partly drawn)" class_label="condition met"
compound="Cc1ncnn1-c1cc(C(=O)N2CC(C(F)(F)F)Oc3c(Cl)cccc32)ccn1 (racemic)" class_label="condition not met"
compound=C[C@H]1CN(C(=O)c2cccc(-n3cnc(C4CC4)n3)c2)c2cccc(Cl)c2O1 class_label="condition met"
compound="CCc1ncn(-c2cc(C(=O)N3CC(C(F)(F)F)Oc4c(Cl)cccc43)ccn2)n1 (racemic)" class_label="condition not met"
compound="Cc1ccc(-n2cnc(C(C)O)n2)cc1C(=O)N1CC(C)Oc2c(Cl)cccc21 (mixture of isomers)" class_label="condition met"

====

# System: wheat
# Procedure summary: Test A postemergence
# Format: in vivo, Triticum aestivum
# Condition summary: 125 g ai/ha, postemergence, 10 days; 0 to 100 scale, 0 no effect, 100 complete control
Threshold check on Wheat plant response rating: strictly below 30 is fulfilled; on or above 30 is not fulfilled.

compound=CCc1ncn(-c2ccc(C)c(C(=O)N3C[C@H](C)Oc4c(C)cccc43)c2)n1 class_label="not fulfilled"
compound=Cc1ccc(-n2cnc(C(C)C)n2)cc1C(=O)N1C[C@H](C)Oc2c(C)cccc21 class_label="not fulfilled"
compound=CCc1ccc(-n2cnc(C3CCC3)n2)cc1C(=O)N1C[C@H](C)Oc2c(Cl)cccc21 class_label=fulfilled
compound="CCC(C)c1ncn(-c2cccc(C(=O)N3C[C@H](C)Oc4c(C)cccc43)c2)n1 (stereo partly shown)" class_label=fulfilled
compound=C[C@H]1CN(C(=O)c2cccc(-n3cnc(C(C)(C)C)n3)c2)c2cccc(Cl)c2O1 class_label="not fulfilled"
compound="Cc1cccc2c1OC(C(F)(F)F)CN2C(=O)c1ccnc(-n2cncn2)c1 (stereo not shown)" class_label=fulfilled
compound=CC(C)c1ncn(-c2ccc(O)c(C(=O)N3C[C@H](C)Oc4c(Cl)cccc43)c2)n1 class_label=fulfilled

====

Each item that follows carries a reported Plant response rating, Wheat.
# Tested on: wheat
# Procedure summary: Test A preemergence
# Type: in vivo, Triticum aestivum
# Condition summary: 125 g ai/ha, visual injury after 10 days, 0 to 100 scale, 0 is no effect, 100 is complete control
Measurement name: Plant response rating, Wheat

compound="CC(C)c1ncn(-c2ccc(O)c(C(=O)N3C[C@H](C)Oc4c(Cl)cccc43)c2)n1 [Compound 105]" measurement_name="Plant response rating, Wheat" data_value=0
compound="Cc1cccc2c1O[C@@H](C)CN2C(=O)c1cccc(-n2cnn(C(C)C)c2=O)c1 [Compound 118]" measurement_name="Plant response rating, Wheat" data_value=0
compound="Cc1cccc2c1O[C@@H](C)CN2C(=O)c1cccc(-n2cnc(C(F)(F)F)n2)c1 [Compound 66]" measurement_name="Plant response rating, Wheat" data_value=20
compound="C[C@H]1CN(C(=O)c2cc(Br)cc(-n3cncn3)c2)c2cccc(Cl)c2O1 [Compound 114]" measurement_name="Plant response rating, Wheat" data_value=20
compound="Cc1ccc(C(=O)N2CC(C)Oc3c(Cl)cccc32)cc1-n1cncn1 (stereo not drawn) [Compound 38]" measurement_name="Plant response rating, Wheat" data_value=0
compound="CCc1ccc(-n2cncn2)cc1C(=O)N1C[C@H](C)Oc2c(Cl)cccc21 [Compound 79]" measurement_name="Plant response rating, Wheat" data_value=10
compound="C[C@H]1CN(C(=O)c2cccc(-n3cnc(C(C)(C)C)n3)c2)c2cccc(Cl)c2O1 [Compound 92]" measurement_name="Plant response rating, Wheat" data_value=30
compound="Cc1ccc(-n2cnc(C3CCC3)n2)cc1C(=O)N1C[C@H](C)Oc2c(C)cccc21 [Compound 97]" measurement_name="Plant response rating, Wheat" data_value=10
compound="Cc1ccc(-n2cnc(Br)n2)cc1C(=O)N1C[C@H](C)Oc2c(Cl)cccc21 [Compound 62]" measurement_name="Plant response rating, Wheat" data_value=0
compound="CCc1ncn(-c2ccc(C)c(C(=O)N3C[C@H](C)Oc4c(Cl)cccc43)c2)n1 [Compound 75]" measurement_name="Plant response rating, Wheat" data_value=30
compound="CCCc1ncn(-c2cccc(C(=O)N3C[C@H](C)Oc4c(C)cccc43)c2)n1 [Compound 72]" measurement_name="Plant response rating, Wheat" data_value=0
compound="C[C@H]1CN(C(=O)c2cccc(-n3cncn3)c2)c2cccc(C#N)c2O1 [Compound 46]" measurement_name="Plant response rating, Wheat" data_value=0
compound="CC1CN(C(=O)c2cccc(-n3cncn3)c2)c2cccc(C3CC3)c2O1 (stereo not drawn) [Compound 42]" measurement_name="Plant response rating, Wheat" data_value=0
compound="Cc1ccc(-n2cncn2)cc1C(=O)N1C[C@H](C)Oc2c(C)cccc21 [Compound 57]" measurement_name="Plant response rating, Wheat" data_value=20
compound="CCc1ccc(-n2cnc(C3CC3)n2)cc1C(=O)N1C[C@H](C)Oc2c(Cl)cccc21 [Compound 103]" measurement_name="Plant response rating, Wheat" data_value=0
compound="Cc1ncn(-c2cccc(C(=O)N3C[C@H](C)Oc4c(C)cccc43)c2)n1 [Compound 51]" measurement_name="Plant response rating, Wheat" data_value=20
compound="Cc1ccc(-n2cnc(C3CC3)n2)cc1C(=O)N1C[C@H](C)Oc2c(Cl)cccc21 [Compound 67]" measurement_name="Plant response rating, Wheat" data_value=10
compound="Cc1cccc2c1O[C@@H](C)CN2C(=O)c1cccc(-n2cnc(C(C)(C)C)n2)c1 [Compound 65]" measurement_name="Plant response rating, Wheat" data_value=40
